assay: Stability of cannabinoid compounds and Vitamin E components in Beverage 2 (AB Red) by LCMSMS; assay type: physicochemical; details: stored at 8° C., 24 days
# Stability of Plant-Derived Cannabinoid Compounds in AB Red annotations
Provide only the numeric value, understood in µg/mL.

# example entries with known answers
> print(dat)
                                   compound  recorded.result
1  CCCCCc1cc(O)c2c(c1)OC(C)(CCC=C(C)C)C=C2 (stereo not drawn)            0.291
2  CCCCCc1cc(O)c2c(c1)OC(C)(C)c1ccc(C)cc1-2             2.76

Query: Requested read-out: Stability of Plant-Derived Cannabinoid Compounds in AB Red. Entry: CCCCCc1cc(O)c2c(c1)OC1(C)CCC3C1C2C3(C)C (stereo not drawn)
Result: 0.508

---

# Stability of Plant-Derived Cannabinoid Compounds in AB White, 8° C. annotations
assay: Stability of cannabinoid compounds and Vitamin E components in Beverage 1 (AB White) by LCMSMS; type: physicochemical; settings: AB White stored at 8° C.; 270 days
Provide only the numeric value, understood in µg/mL.

# example entries with known answers
> print(dat)
                                   compound  units.text  recorded.result
1  C=C(C)[C@@H]1CCC(C)=C[C@H]1c1c(O)cc(CCC)cc1O       µg/mL            0.143
2  C=C(C)[C@@H]1CCC(C)=C[C@H]1c1c(O)cc(CCCCC)c(C(=O)O)c1O       µg/mL             1.70
3  CCCCCc1cc(O)c2c(c1)OC1(C)CCC3C1C2C3(C)C (stereo not shown)       µg/mL            0.539

Query: Requested read-out: Stability of Plant-Derived Cannabinoid Compounds in AB White, 8° C.. Entry: CCCCCc1cc(O)c(C/C=C(\C)CCC=C(C)C)c(O)c1
Result: 4.72

---

experiment: Stability of cannabinoid compounds and Vitamin E components in Beverage 1 (AB White) by LCMSMS; assay type: physicochemical; details: AB White stored at 21-25° C.; 390 days
attribute_measured: Stability of Plant-Derived Cannabinoid Compounds in AB White, 21-25° C. (µg/mL)
Provide only the numeric value, understood in µg/mL.

# example entries with known answers
> print(dat)
                                   compound  units.text  recorded.result
1  CCCCCc1cc(O)c2c(c1)OC(C)(C)c1ccc(C)cc1-2 [CBN, cannabinol]       µg/mL             2.66
2  CCCc1cc(O)c2c(c1)OC(C)(C)[C@@H]1CCC(C)=C[C@@H]21 [THCV, delta-9-tetrahydrocannabivarin]       µg/mL             3.40
3  C=C(C)[C@@H]1CCC(C)=C[C@H]1c1c(O)cc(CCCCC)c(C(=O)O)c1O [CBDA, cannabidiolic acid]       µg/mL             1.67
4  CCCCCc1cc(O)c2c(c1)OC1(C)CCC3C1C2C3(C)C (stereo not drawn) [CBL, cannabicyclol]       µg/mL            0.518
5  CCCCCc1cc(O)c2c(c1)OC(C)(C)[C@@H]1CCC(C)=C[C@@H]21 [D9 THC, delta-9-tetrahydrocannabinol, reference compound]       µg/mL             11.4

Query: Requested read-out: Stability of Plant-Derived Cannabinoid Compounds in AB White, 21-25° C.. Entry: CCCCCc1cc(O)c2c(c1)OC(C)(CCC=C(C)C)C=C2 (stereo not drawn) [CBC, cannabichromene]
Result: 0.303

Query: Requested read-out: Stability of Plant-Derived Cannabinoid Compounds in AB White, 21-25° C.. Entry: CCCCCc1cc(O)c(C/C=C(\C)CCC=C(C)C)c(O)c1 [CBG, cannabigerol]
Result: 4.70

Query: Requested read-out: Stability of Plant-Derived Cannabinoid Compounds in AB White, 21-25° C.. Entry: CCCCCc1cc2c(c(O)c1C(=O)O)[C@@H]1C=C(C)CC[C@H]1C(C)(C)O2 [D9 THCA, delta-9-tetrahydrocannabinolic acid]
Result: 0.907

Query: Requested read-out: Stability of Plant-Derived Cannabinoid Compounds in AB White, 21-25° C.. Entry: C=C(C)[C@@H]1CCC(C)=C[C@H]1c1c(O)cc(CCC)cc1O [CBDV, cannabidivarin]
Result: 0.146
